Exercise: state measured activity, negative = cell killing for each of the compounds provided.
assay.remarks: Drug repurposing screens with cells derived from glioblastoma tumor samples (AID 1345199); note: % is set by controls: 0 for no effect and ±100 for the full control effect; nearly all actives have a fitted effect of over 40% in size
assay.conditions: GBM patient neurospheres viability, ATP luminescence, 48 h; at 46.1 µM (top of the series); tumour line C
Records with an inconclusive call do not appear.
Give your result in % as a bare value.

input: Consider the compound shown here: CC(=O)Oc1cc(C)c(OC(C)=O)c2ccccc12 What is its recorded activity, negative = cell killing?
output: 0.711

input: Request: CC(=O)N[C@@H](CC(=O)N[C@@H](CCC(=O)O)C(=O)O)C(=O)O
output: 6.84

input: Request: COc1ccc(CCNC[C@H](O)c2ccc(O)cc2)cc1OC
output: -0.44

input: Request: CC(NNC(=O)c1ccccc1)c1ccccc1 (stereo unspecified)
output: -40.2

input: Request: CCCCC(C)(O)C/C=C/[C@H]1[C@H](O)CC(=O)[C@@H]1CCCCCCC(=O)OC (stereo partly specified)
output: 7.24

input: Request: O=C(O)c1cc(O)c2c(c1)[O][Bi][O]2
output: 3.44

###

Test system: PA-1
assay.remarks: Primary qHTS to identify gynecologic anti-cancer compounds using libraries of approved drugs and bioactive compounds (AID 1345084); note: % is set by controls: 0 for no effect and ±100 for the full control effect; nearly all actives have a fitted effect of over 55% in size
assay.conditions: Gynecologic cancer cell panel viability, ATPlite luminescence, 48 h; series mostly up to 57.5 µM
Results filed as inconclusive are left out. The source made the active and inactive calls. Calls come from the whole dose curve; as a rule, active = well fitted cell-killing curve with a large enough effect; inconclusive = small, poorly fitted or top-dose-only effect, or effect the other way; inactive = flat fitted curve, though single readings scatter.
parameter.measured: activity change, negative = cytotoxicity

Example entries and their recorded answers appear below.
{"columns": ["molecule", "recorded.measurement"],
 "data": [
  ["COC1=CC(=O)O[C@@H](/C=C/c2ccccc2)[C@@H]1O", "inactive"],
  ["CC1(C)CCCC2(C)C3=C(C(=O)OC3O)C(O)CC12 (stereo unspecified)", "inactive"],
  ["CCC/C=C/C(=O)O[C@H]1CC(C)(C)CC2[C@]13[C@H](O)O[C@@]21CCC2[C@@]4(C)CC[C@H](O[C@@H]5O[C@H](C(=O)O)[C@@H](O)[C@H](O[C@@H]6O[C@H](CO)[C@H](O)[C@H](O)[C@H]6O[C@@H]6O[C@@H](C)[C@H](O)[C@@H](O)[C@H]6O[C@@H]6OC[C@](O)(CO)[C@H]6O)[C@H]5O[C@@H]5O[C@H](CO)[C@H](O)[C@H](O)[C@H]5O)C(C)(C)C4CC[C@@]2(C)[C@]1(C)C[C@H]3OC(C)=O (stereo partly specified)", "-0.307% [at 6.55 µM] (inactive)"],
  ["C=C1CC23CCC4[C@@](C)(CCC[C@@]4(C)C(=O)O)C2CCC1C3 (stereo partly specified)", "inactive"],
  ["C=C[C@H]1[C@H](O[C@@H]2O[C@H](CO)[C@@H](O)[C@H](O)[C@H]2O)OC=C2C(=O)OCC[C@]21O", "inactive"]
]}

Here is another molecule to look at.
input: Consider the molecule shown here: CC1=CC(=O)CC(C)(C)C1CCC(C)OC1OC(COC(=O)c2cc(O)c(O)c(O)c2)C(O)C(O)C1O (stereo unspecified) What is its recorded activity change, negative = cytotoxicity?
output: inactive

###

assay.remarks: Cell Viability - LYMP2-004 (AID 966);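 note: cells exposed to compound for 24 h; nearly all actives have a fitted effect of over 65% in size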
assay.conditions: LYMP2-004 lymphoblastoid cell viability, qHTS; series mostly up to 92.2 µM
Inconclusive results are not listed. Activity calls are given as the source filed them. Calls come from the whole dose curve; as a rule, active = well fitted cell-killing curve with a large enough effect; inconclusive = small, poorly fitted or top-dose-only effect, or effect the other way; inactive = no such curve, though single readings can be large or run the other way.
Permitted responses: TRUE = active, FALSE = inactive

input: // param item: CC1=C(/C=C/C(C)=C/C=C/C(C)=C/CO)C(C)(C)CCC1 ; yields the recorded call
output: TRUE

input: Request: O=C(O)CCC(=O)C(=O)O
output: FALSE

input: Request: CCOc1ccc2c(c1)C(C)=CC(C)(C)N2
output: FALSE

input: Request: IC(I)I
output: FALSE

input: Request: CC(O)CO (stereo not given)
output: FALSE

input: Request: O=CCCCC=O
output: TRUE

input: Request: CCCCC/C=C\C/C=C\CCCCCCCC(=O)O
output: FALSE

input: Request: Nc1ccn([C@H]2CS[C@@H](CO)O2)c(=O)n1
output: FALSE

input: Request: CCCCCCCC(=O)O
output: FALSE

input: Request: O=S(=O)(O)O
output: FALSE

###

Tested on: Tov-21-G
assay.remarks: Primary qHTS to identify gynecologic anti-cancer compounds using libraries of approved drugs and bioactive compounds (AID 1345084); note: % is set by controls: 0 for no effect and ±100 for the full control effect; nearly all actives have a fitted effect of over 55% in size
assay.conditions: Gynecologic cancer cell panel viability, ATPlite luminescence, 48 h; series mostly up to 57.5 µM
Inconclusive results are not listed. Calls of active or inactive are those of the source. The call rests on the fitted dose curve; in most records, active means well fitted cell-killing curve with a large enough effect; inconclusive means small, poorly fitted or top-dose-only effect, or effect the other way; inactive means flat fitted curve, though single readings scatter.
parameter.measured: activity change, negative = cytotoxicity

{"columns": ["compound", "activity change, negative = cytotoxicity"],
 "data": [
  ["c1ccc(Nc2nc3c(s2)CCCc2[nH]ncc2-3)nc1", "inactive"],
  ["O=C(O)C[C@H]1CCC(=O)[C@@H]1C/C=C\\CCOC1OC(CO)C(O)C(O)C1O (some centres not stated)", "inactive"],
  ["C=C1CCC2C(C)(C)CC(=O)CC2(C)C1CCC(C)CCOC(C)=O (configuration not stated)", "inactive"],
  ["CN1C(=O)N[C@@H](Cc2c[nH]c3c(Cl)cccc23)C1=O", "inactive"],
  ["C[C@@H]1O[C@@H](OC[C@H]2O[C@@H](OCCc3ccccc3)[C@H](O)[C@@H](O)[C@@H]2O)[C@H](O)[C@H](O)[C@H]1O", "inactive"],
  ["CC(=O)O[C@@H]1[C@H]2[C@@H](OC(=O)c3ccccc3)[C@@H](C)C[C@]2(O)[C@H](OC(C)=O)[C@@]2(C)[C@@H]3CC(C)(C)C(=O)[C@]3(OC(C)=O)C[C@@]12C", "inactive"],
  ["COc1cc(/C=C/C(=O)OC[C@H]2O[C@H](O[C@]3(CO)O[C@H](CO)[C@@H](O)[C@@H]3O)[C@H](O)[C@@H](O)[C@@H]2O)cc(OC)c1O", "inactive"],
  ["CC1=C2C(=O)C=C(CO)[C@@H]2[C@H]2OC(=O)[C@H](C)[C@@H]2[C@@H](O)C1", "inactive"],
  ["Cc1[nH]cnc1C1CCN(c2nc3cccc4c3n2CCC4=O)CC1", "inactive"],
  ["Cc1nnc(C(C)C)n1C1CC2CCC(C1)N2CCC(NC(=O)C1CCC(F)(F)CC1)c1ccccc1 (configuration not stated)", "inactive"]
]}

input: Consider the compound shown here: CC1=CC(=O)CC(C)(C)C1CCC(C)OC1OC(COC(=O)c2cc(O)c(O)c(O)c2)C(O)C(O)C1O (configuration not stated) What is its recorded activity change, negative = cytotoxicity?
output: inactive

input: Request: C=C1CCC2C(C)(COC3OC(COC(=O)CC(=O)O)C(O)C(O)C3O)CCCC2(C)C1CCC1=CCOC1=O (configuration not stated)
output: inactive

input: Request: COC(=O)C12C(=O)C(C)=C(O)C1(C)C(C)=CC1C34CCC(OC3=O)C(C)(C)C4CCC12C (configuration not stated)
output: inactive

input: Request: CC(C)CC(=O)OC[C@H]1O[C@@](COC(=O)CC(C)C)(O[C@H]2O[C@H](CO)[C@@H](O)[C@H](O)[C@H]2O)[C@@H](OC(=O)CC(C)C)[C@@H]1OC(=O)CC(C)C
output: inactive

input: Request: CC1(C)CCCC2(C)C1C(O)C=C(CO)C2(O)C(=O)O (configuration not stated)
output: inactive

input: Request: C[C@@H]1O[C@@H](O[C@@H]2[C@@H](O)[C@H](O[C@@H]3[C@@H](O)[C@@H](O)[C@H](O[C@H]4[C@H](OC(=O)[C@]56CCC(C)(C)C[C@H]5C5=CCC7[C@@]8(C)C[C@H](O)[C@H](O[C@@H]9O[C@@H](C)[C@H](O)[C@@H](O)[C@H]9O)[C@@](C)(CO)C8CC[C@@]7(C)[C@]5(C)C[C@H]6O)O[C@H](C)[C@H](O)[C@@H]4O)O[C@H]3C)OC[C@H]2O)[C@H](O)[C@H](O)[C@H]1O (some centres not stated)
output: -0.124% [at 6.55 µM] (inactive)

input: Request: C=C1CCC2C(C)(C)C(O)CCC2(C)C1CCC(C)CCOC(=O)CCC(=O)O (configuration not stated)
output: inactive

###

study.target: Ubiquitin carboxyl-terminal hydrolase 1 (Homo sapiens)
assay.remarks: Inhibitors of USP1/UAF1: Pilot qHTS (AID 504865); note: nearly all actives have a fitted effect of over 35% in size; note: potency is the fitted concentration of half-maximal effect
assay.conditions: purified USP1/UAF1, Ub-rhodamine cleavage fluorescence; series mostly up to 114 µM
Inconclusive results are not listed. Calls of active or inactive are those of the source. Calls come from the whole dose curve; as a rule, active = well fitted inhibition curve with a large enough effect; inconclusive = small, poorly fitted or top-dose-only effect; inactive = flat fitted curve, though single readings scatter.
parameter.measured: Potency

{"columns": ["molecule", "study.target", "Potency"],
 "data": [
  ["CC1=CCC(C(C)(C)O)CC1 (configuration not stated)", "Ubiquitin carboxyl-terminal hydrolase 1 (Homo sapiens)", "inactive"],
  ["CCCCCCOc1ccc(C(=N)N(CCCC)CCCC)c2ccccc12", "Ubiquitin carboxyl-terminal hydrolase 1 (Homo sapiens)", "39.8 µM (active)"],
  ["COC(=O)CCC(=O)CN", "Ubiquitin carboxyl-terminal hydrolase 1 (Homo sapiens)", "inactive"],
  ["C#CCOc1ccc2c(C)cc(=O)oc2c1", "Ubiquitin carboxyl-terminal hydrolase 1 (Homo sapiens)", "inactive"],
  ["IC(I)I", "Ubiquitin carboxyl-terminal hydrolase 1 (Homo sapiens)", "inactive"],
  ["CC[N+](C)(C)Cc1ccccc1Br", "Ubiquitin carboxyl-terminal hydrolase 1 (Homo sapiens)", "inactive"]
]}

input: # value lookup — system Ubiquitin carboxyl-terminal hydrolase 1 (Homo sapiens), readout Potency, item C[C@]12CCC(=O)C=C1CC[C@@H]1[C@@H]2[C@@H](O)C[C@@]2(C)[C@H]1CC[C@]2(O)C(=O)COP(=O)(O)O
output: inactive
